Quick list: pKi per entry.
- target or system: T1, SSR510 (Homo sapiens)
- T1 chain: ANGLMQTSKL
- test summary: fluorescence polarization competition
pKi: −log10 of the molar value.
experimental endpoint: pKi

1. NHERF2 PDZ2 (protein) LRPRLCHLRKGPQGYGFNLHSDKSRPGQYIRSVDPGSPAARSGLRAQDRLIEVNGQNVEGLRHAEVVASIKAREDEARLLVVDPETD ... 4.70
2. NHERF1 PDZ2 (protein) RPRLCTMKKGPSGYGFNLHSDKSKPGQFIRSVDPDSPAEASGLRAQDRIVEVNGVCMEGKQHGDVVSAIRAGGDETKLLVVDRETDE ... 3.89
3. NHERF2 PDZ1 (protein) RPRLCRLVRGEQGYGFHLHGEKGRRGQFIRRVEPGSPAEAAALRAGDRLVEVNGVNVEGETHHQVVQRIKAVEGQTRLLVVDQETD ... 4.41
4. NHERF1 PDZ1 (protein) LPRLCCLEKGPNGYGFHLHGEKGKLGQYIRLVEPGSPAEKAGLLAGDRLVEVNGENVEKETHQQVVSRIRAALNAVRLLVVDPETDE ... 4.61
